# assayed-system: ERα (Homo sapiens)
# Construct: host or cells: MCF7
# Sequence (P03372 whole entry): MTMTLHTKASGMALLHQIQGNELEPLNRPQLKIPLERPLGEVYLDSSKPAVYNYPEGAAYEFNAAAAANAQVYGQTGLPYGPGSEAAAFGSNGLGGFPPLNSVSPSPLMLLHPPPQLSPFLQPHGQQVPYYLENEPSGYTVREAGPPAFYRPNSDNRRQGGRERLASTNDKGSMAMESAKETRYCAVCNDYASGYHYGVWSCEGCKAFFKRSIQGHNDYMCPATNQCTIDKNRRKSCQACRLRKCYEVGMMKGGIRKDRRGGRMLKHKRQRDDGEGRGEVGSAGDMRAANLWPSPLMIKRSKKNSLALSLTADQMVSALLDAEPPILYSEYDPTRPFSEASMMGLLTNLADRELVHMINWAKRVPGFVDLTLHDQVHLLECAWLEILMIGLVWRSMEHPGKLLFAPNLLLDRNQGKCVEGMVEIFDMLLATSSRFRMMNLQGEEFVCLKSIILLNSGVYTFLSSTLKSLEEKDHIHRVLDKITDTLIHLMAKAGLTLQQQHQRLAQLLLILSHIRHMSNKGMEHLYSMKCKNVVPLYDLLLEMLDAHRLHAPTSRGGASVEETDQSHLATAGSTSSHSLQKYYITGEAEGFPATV
# procedure-text: Estrogen receptor degradation activity: breast cancer cell ERα in cell western assay (MCF7 cells)
# Format: cell-based
# run-conditions: 0.3 μM, 4 hours, relative to fulvestrant 0.1 μM positive control
value-kind: % Degradation At 0.3 μM (%)
Give a bare numeral; the unit % is implied.

Query: Lookup: % Degradation At 0.3 μM / ERα (Homo sapiens) / Cc1cc(C(F)(F)F)ccc1C1=C(c2ccc(C=C3CN(CCC(F)(F)F)C3)cc2)c2ccc(C(=O)O)cc2CCC1 [Example 113]
Response: 90

Query: Lookup: % Degradation At 0.3 μM / ERα (Homo sapiens) / Cc1c(C=C2CN(CCCF)C2)ccc(C2=C(c3ccc(Cl)cc3Cl)CCCc3cc(C(=O)O)ccc32)c1F.Cl [Example 74]
Response: 92

Query: Lookup: % Degradation At 0.3 μM / ERα (Homo sapiens) / Cc1cc(F)ccc1C1=C(c2ccc(C=C3CN(CCC(F)F)C3)cc2)c2ccc(C(=O)O)cc2CCC1 [Example 19]
Response: 93

Query: Lookup: % Degradation At 0.3 μM / ERα (Homo sapiens) / Cl.O=C(O)c1ccc2c(c1)CCCC(c1ccc(Cl)cc1Cl)=C2c1cc(F)c(C=C2CN(CCCF)C2)cc1F [Example 92]
Response: 98

Query: Lookup: % Degradation At 0.3 μM / ERα (Homo sapiens) / O=C(O)c1ccc2c(c1)CCCC(c1c(F)cccc1Cl)=C2c1ccc(C=C2CN(CCCF)C2)cc1 [Example 42]
Response: 91

Query: Lookup: % Degradation At 0.3 μM / ERα (Homo sapiens) / O=C(O)c1ccc2c(c1)CCCC(c1ccc(F)c3c1CCC3)=C2c1ccc(C=C2CN(CCC(F)F)C2)cc1 [Example 165]
Response: 96

Query: Lookup: % Degradation At 0.3 μM / ERα (Homo sapiens) / CC1CCc2cc(C(=O)O)ccc2C(c2ccc(C=C3CN(CCCF)C3)cc2)=C1c1ccc(Cl)cc1 (single isomer, unassigned) [Example 179]
Response: 91

Query: Lookup: % Degradation At 0.3 μM / ERα (Homo sapiens) / Cc1cc(F)ccc1C1=C(c2c(F)cc(C=C3CN(CCCF)C3)cc2F)c2ccc(C(=O)O)cc2CCC1 [Example 68]
Response: 96

Query: Lookup: % Degradation At 0.3 μM / ERα (Homo sapiens) / Cl.O=C(O)c1ccc2c(c1)CCCC(c1ccc(Cl)cc1Cl)=C2c1cc(F)c(C=C2CN(CCCF)C2)c(F)c1 [Example 105]
Response: 94

Query: Lookup: % Degradation At 0.3 μM / ERα (Homo sapiens) / O=C(O)c1ccc2c(c1)CCCC(c1ccc(Cl)cc1Cl)=C2c1c(F)cc(C=C2CN(CCCF)C2)cc1F [Example 73]
Response: 98

Query: Lookup: % Degradation At 0.3 μM / ERα (Homo sapiens) / O=C(O)c1ccc2c(c1)CCCC(c1ccc(C(F)(F)F)c(C(F)(F)F)c1)=C2c1ccc(C=C2CN(CCCF)C2)cc1 [Example 146]
Response: 88

Query: Lookup: % Degradation At 0.3 μM / ERα (Homo sapiens) / Cc1cc(F)ccc1C1=C(c2cc(C)c(C=C3CN(CCCF)C3)c(F)c2)c2ccc(C(=O)O)cc2CCC1 [Example 28]
Response: 90

Query: Lookup: % Degradation At 0.3 μM / ERα (Homo sapiens) / Oc1ccc2c(c1)CCCC(c1ccc(Cl)cc1Cl)=C2c1ccc(C=C2CN(CCCF)C2)cc1 [Example 170]
Response: 85

Query: Lookup: % Degradation At 0.3 μM / ERα (Homo sapiens) / Cc1cc(C2=C(c3ccc(F)cc3C)CCCc3cc(C(=O)O)ccc32)ccc1C=C1CN(CCCF)C1.Cl [Example 44]
Response: 91
